These measurements were taken from ChEMBL document CHEMBL4251662.

- System: HEK293
- Method Notes: Effect on forskolin-stimulated cAMP level in HEK293 cells at 10 uM by BRET assay relative to control
- Assay type: ADME, cell-based
- Conditions Used: human, hek293, 10 µM
The entries below come with measured Activity values attached.
Numeric only. Scale: %

Past entries and their recorded results:
{"Structure As Smiles": "Cc1ccc(Cn2nc(C(=O)N[C@@H]3C(C)(C)[C@@H]4CC[C@@]3(C)C4)cc2-c2ccc(Cl)c(C)c2)cc1", "Assayed Target": "HEK293", "Readout Label": "Activity", "Value Reported": 94.5}
{"Structure As Smiles": "O=C(c1cccc2ccccc12)c1cn(CC2CCOCC2)c2ccc(O)cc12", "Assayed Target": "HEK293", "Readout Label": "Activity", "Value Reported": 108.1}
{"Structure As Smiles": "COc1ccc(C(=O)c2cn(CCN3CCOCC3)c3ccc(O)cc23)cc1", "Assayed Target": "HEK293", "Readout Label": "Activity", "Value Reported": 105.2}
{"Structure As Smiles": "COc1ccc(C(=O)c2cn(CC3CCOCC3)c3c(OCCCCCCNC(C)=O)cccc23)cc1", "Assayed Target": "HEK293", "Readout Label": "Activity", "Value Reported": 128}

Record COc1ccc(C(=O)c2cn(CC3CCOCC3)c3ccc(OCC(=O)O)cc23)cc1 , field Activity: 100.1

---

- Assayed Target: Cannabinoid receptor 2 (Homo sapiens)
- Method Notes: Agonist activity at N-terminal HA-tagged human CB2 receptor expressed in HEK293 cells transfected with YFP-Epac-RLuc assessed as decrease in forskolin-stimulated cAMP level at 10 uM by BRET assay
- Format: functional, cell-based
Active and inactive are the calls of the source. The rule behind the calls is not given here.

{"Structure As Smiles": "COc1ccc(C(=O)c2cn(CC3CCOCC3)c3c(OCC(=O)O)cccc23)cc1", "Activity": "Active"}
{"Structure As Smiles": "O=C(c1cn(CCN2CCOCC2)c2ccc(O)cc12)C1CCCCC1", "Activity": "Active"}
{"Structure As Smiles": "COc1ccc(C(=O)c2cn(CCN3CCOCC3)c3ccc(O)cc23)cc1", "Activity": "Active"}

---

- Assayed Target: Cannabinoid receptor 1 (Homo sapiens)
- Method Notes: Agonist activity at N-terminal HA-tagged human CB1 receptor expressed in HEK293 cells transfected with YFP-Epac-RLuc assessed as decrease in forskolin-stimulated cAMP level by BRET assay relative to control
- Format: functional, cell-based
Output t for records whose Emax is lower than 70%, f for records at or above 70%.

Example entries begin here.
{"Structure As Smiles": "O=C(c1cccc2ccccc12)c1cn(CC2CCOCC2)c2ccc(O)cc12", "Classification": "t"}
{"Structure As Smiles": "COc1ccc(C(=O)c2cn(CC3CCOCC3)c3c(OCCCCCCNC(C)=O)cccc23)cc1", "Classification": "f"}
{"Structure As Smiles": "COc1ccc(C(=O)c2cn(CC3CCOCC3)c3c(O)cccc23)cc1", "Classification": "t"}

Now turn to the next compound.
Item COc1ccc(C(=O)c2cn(CC3CCOCC3)c3c(OCCCCC(=O)O)cccc23)cc1 : Emax beneath 70%, strictly?
f

---

- Assayed Target: Cannabinoid receptor 2 (Homo sapiens, UniProt P34972)
- Sequence (P34972 whole entry): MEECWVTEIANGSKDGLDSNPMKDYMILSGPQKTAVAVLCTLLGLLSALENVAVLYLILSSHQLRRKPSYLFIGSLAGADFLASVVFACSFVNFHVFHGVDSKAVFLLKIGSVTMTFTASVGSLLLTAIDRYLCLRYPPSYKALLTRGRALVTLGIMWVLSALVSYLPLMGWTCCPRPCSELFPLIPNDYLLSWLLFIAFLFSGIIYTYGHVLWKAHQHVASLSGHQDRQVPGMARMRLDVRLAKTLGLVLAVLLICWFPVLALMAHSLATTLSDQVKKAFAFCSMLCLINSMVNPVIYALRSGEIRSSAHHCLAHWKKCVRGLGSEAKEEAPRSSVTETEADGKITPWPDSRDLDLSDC
- Method Notes: Inverse agonist activity at N-terminal HA-tagged human CB2 receptor expressed in HEK293 cells transfected with YFP-Epac-RLuc assessed as increase in forskolin-stimulated cAMP level by BRET assay
- Assay type: functional, cell-based
The entries below come with measured IC50 values attached.

Past entries and their recorded results:
{"Structure As Smiles": "COc1ccc(C(=O)c2cn(CC3CCOCC3)c3c(OCCCCC(=O)O)cccc23)cc1", "IC50": "> 10000 nM"}
{"Structure As Smiles": "COC(=O)CCCCOc1cccc2c(C(=O)c3ccc(OC)cc3)cn(CC3CCOCC3)c12", "IC50": "> 10000 nM"}
{"Structure As Smiles": "COc1ccc(C(=O)c2cn(CC3CCOCC3)c3c(O)cccc23)cc1", "IC50": "272 nM"}
{"Structure As Smiles": "COc1ccc(C(=O)c2cn(CC3CCOCC3)c3c(OCCCCCCNC(C)=O)cccc23)cc1", "IC50": "> 10000 nM"}

Consider the record given below.
Record CCCOc1cccc2c(C(=O)c3ccc(OC)cc3)cn(CC3CCOCC3)c12 , field IC50: 30.6 nM

---

- Assayed Target: Cannabinoid receptor 1 (Homo sapiens, UniProt P21554)
- Sequence (P21554 whole entry): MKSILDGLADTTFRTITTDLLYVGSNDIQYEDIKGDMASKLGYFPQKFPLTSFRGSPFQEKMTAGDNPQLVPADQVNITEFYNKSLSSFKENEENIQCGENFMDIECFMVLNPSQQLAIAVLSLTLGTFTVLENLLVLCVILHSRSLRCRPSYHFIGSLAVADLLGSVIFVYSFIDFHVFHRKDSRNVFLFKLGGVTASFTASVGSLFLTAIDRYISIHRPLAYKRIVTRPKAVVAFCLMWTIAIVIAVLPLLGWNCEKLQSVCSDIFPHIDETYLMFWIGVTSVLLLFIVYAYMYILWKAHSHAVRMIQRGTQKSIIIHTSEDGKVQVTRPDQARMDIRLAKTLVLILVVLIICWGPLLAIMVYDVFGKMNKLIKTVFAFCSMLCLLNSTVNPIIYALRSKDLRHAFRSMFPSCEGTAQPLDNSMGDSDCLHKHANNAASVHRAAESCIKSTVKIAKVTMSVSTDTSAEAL
- Method Notes: Displacement of [3H]CP55,940 from N-terminal HA-tagged human CB1 receptor expressed in HEK293 cell membranes after 1 hr by microbeta scintillation counting method
- Conditions Used: read-out: Ki
pKi: −log10 of the molar value.
The entries below come with measured pKi values attached.

Past entries and their recorded results:
{"Structure As Smiles": "O=C(c1cn(CCN2CCOCC2)c2ccc(O)cc12)C1CCCCC1", "Readout Label": "pKi", "Value Reported": "< 5.00"}
{"Structure As Smiles": "COc1ccc(C(=O)c2cn(CCN3CCOCC3)c3ccc(OCC(=O)O)cc23)cc1", "Readout Label": "pKi", "Value Reported": "< 5.00"}
{"Structure As Smiles": "COc1ccc(C(=O)c2cn(CC3CCOCC3)c3c(OCCCCC(=O)NCCOCCOCCNC(C)=O)cccc23)cc1", "Readout Label": "pKi", "Value Reported": "< 5.00"}
{"Structure As Smiles": "COc1ccc(C(=O)c2cn(CCN3CCOCC3)c3ccc(O)cc23)cc1", "Readout Label": "pKi", "Value Reported": "< 5.00"}
{"Structure As Smiles": "CCCOc1ccc2c(c1)c(C(=O)c1ccc(OC)cc1)cn2CC1CCOCC1", "Readout Label": "pKi", "Value Reported": 5.34}

Record COc1ccc(C(=O)c2cn(CC3CCOCC3)c3ccc(O)cc23)cc1 , field pKi: 5.85

Record COc1ccc(C(=O)c2cn(CCN3CCOCC3)c3ccc(OCCCCCCC(=O)NCCOCCOCCNC(=O)CCCCCNC(=O)COc4ccc(/C=C/C5=[N+]6C(=Cc7ccc(-c8cccs8)n7[B-]6(F)F)C=C5)cc4)cc23)cc1 , field pKi: < 5.00

Record O=C(O)COc1ccc2c(c1)c(C(=O)c1cccc3ccccc13)cn2CCN1CCOCC1 , field pKi: < 5.00

---

- Assayed Target: Cannabinoid receptor 1 (Homo sapiens, UniProt P21554)
- Method Notes: Agonist activity at N-terminal HA-tagged human CB1 receptor expressed in HEK293 cells transfected with YFP-Epac-RLuc assessed as decrease in forskolin-stimulated cAMP level by BRET assay
Readout Label: EC50 (µM)
Numeric only. Scale: µM

{"Structure As Smiles": "COc1ccc(C(=O)c2cn(CC3CCOCC3)c3ccc(O)cc23)cc1", "Uom": "µM", "EC50": 0.0629}

Consider the record given below.
Record COc1ccc(C(=O)c2cn(CC3CCOCC3)c3c(O)cccc23)cc1 , field EC50: 0.632

---

- Assayed Target: Cannabinoid receptor 2 (Homo sapiens, UniProt P34972)
- Method Notes: Inverse agonist activity at N-terminal HA-tagged human CB2 receptor expressed in HEK293 cells transfected with YFP-Epac-RLuc assessed as increase in forskolin-stimulated cAMP level by BRET assay relative to control
- Assay type: functional, cell-based
Readout Label: Emax (%)
Numeric only. Scale: %

{"Structure As Smiles": "COC(=O)CCCCOc1cccc2c(C(=O)c3ccc(OC)cc3)cn(CC3CCOCC3)c12", "Uom": "%", "Emax": 166}

Record Cc1ccc(Cn2nc(C(=O)N[C@@H]3C(C)(C)[C@@H]4CC[C@@]3(C)C4)cc2-c2ccc(Cl)c(C)c2)cc1 , field Emax: 212

Record CCCOc1cccc2c(C(=O)c3ccc(OC)cc3)cn(CC3CCOCC3)c12 , field Emax: 263

Record COc1ccc(C(=O)c2cn(CC3CCOCC3)c3c(OCCCCC(=O)O)cccc23)cc1 , field Emax: 124

Record COc1ccc(C(=O)c2cn(CC3CCOCC3)c3c(O)cccc23)cc1 , field Emax: 190

Record COc1ccc(C(=O)c2cn(CC3CCOCC3)c3c(OCCCCCCNC(C)=O)cccc23)cc1 , field Emax: 151

---

- Assayed Target: Potassium voltage-gated channel subfamily KQT member 2 (Homo sapiens) (UniProt O43526)
- Sequence (O43526 whole entry): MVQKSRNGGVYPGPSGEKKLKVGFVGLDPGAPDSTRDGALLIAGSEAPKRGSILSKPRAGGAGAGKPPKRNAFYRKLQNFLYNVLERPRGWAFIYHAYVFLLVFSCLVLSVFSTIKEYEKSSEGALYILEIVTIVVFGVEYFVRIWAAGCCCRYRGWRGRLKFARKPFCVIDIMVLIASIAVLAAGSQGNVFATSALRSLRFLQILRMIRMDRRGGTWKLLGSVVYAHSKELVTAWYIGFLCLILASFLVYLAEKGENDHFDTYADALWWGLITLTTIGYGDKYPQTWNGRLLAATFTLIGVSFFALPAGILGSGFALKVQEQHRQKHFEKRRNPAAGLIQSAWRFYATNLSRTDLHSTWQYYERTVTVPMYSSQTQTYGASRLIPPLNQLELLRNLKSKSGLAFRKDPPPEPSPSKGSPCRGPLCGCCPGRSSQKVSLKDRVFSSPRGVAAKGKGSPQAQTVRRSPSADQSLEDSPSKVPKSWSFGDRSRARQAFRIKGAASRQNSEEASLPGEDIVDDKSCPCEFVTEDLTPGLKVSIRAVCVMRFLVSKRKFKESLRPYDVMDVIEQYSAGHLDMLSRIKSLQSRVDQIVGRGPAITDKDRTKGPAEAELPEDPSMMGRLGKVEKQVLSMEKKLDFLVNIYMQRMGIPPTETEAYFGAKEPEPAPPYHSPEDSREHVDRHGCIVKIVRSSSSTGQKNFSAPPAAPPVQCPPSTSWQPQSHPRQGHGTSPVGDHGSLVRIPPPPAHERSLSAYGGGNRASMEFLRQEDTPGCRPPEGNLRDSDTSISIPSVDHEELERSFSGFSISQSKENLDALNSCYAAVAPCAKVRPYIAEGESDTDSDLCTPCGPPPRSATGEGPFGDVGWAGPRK
- Method Notes: Agonist activity at KCNQ2 (unknown origin)
Activity calls are given as the source filed them. No cut-off for these calls is given here.
Readout Label: Activity

{"Structure As Smiles": "O=C(c1cccc2ccccc12)c1cn(CC2CCOCC2)c2ccc(O)cc12", "Readout Label": "Activity", "Value Reported": "inactive"}
{"Structure As Smiles": "COc1ccc(C(=O)c2cn(CC3CCOCC3)c3ccc(O)cc23)cc1", "Readout Label": "Activity", "Value Reported": "inactive"}
{"Structure As Smiles": "COc1ccc(C(=O)c2cn(CC3CCOCC3)c3c(OCc4ccccc4)cccc23)cc1", "Readout Label": "Activity", "Value Reported": "inactive"}
